experiment-summary: BET inhibitor-based combinations targeting novel dependencies in MECOM-rearranged (r) AML: MV-4-11 cell line (AID 2202233); further: nearly all actives have a fitted effect of over 45% in size
measurement-context: MV-4-11 AML viability, CellTiter-Glo luminescence, 48 h; series mostly up to 46 µM
Inconclusive results are not listed. Activity calls are given as the source filed them. The call rests on the fitted dose curve; in most records, active means well fitted inhibition curve with a large enough effect; inconclusive means small, poorly fitted or top-dose-only effect; inactive means no such curve, though single readings can be large or run the other way.
Parameter call: string, one of 1 for active, -1 for inactive

Here are 8 compounds together with their reported answers.
1) CN1CC(=O)N2[C@H](c3ccc4c(c3)OCO4)c3[nH]c4ccccc4c3C[C@@H]2C1=O: -1
2) O=C(C1CC1)N1CC[C@@H](Cn2c(-c3ccc(-c4ccc5occc5c4)cc3)nc3cnccc32)C1: 1
3) Cc1ccc(S(=O)(=O)Nc2cc(C(F)(F)F)ccc2C(=O)Nc2nc(-c3ccccc3)cs2)cc1: 1
4) C#Cc1cccc(Nc2ncnc3cc(OCCOC)c(OCCOC)cc23)c1: 1
5) O=C(O)CCC=CCC[C@@H]1[C@H](N2CCCCC2)[C@@H](O)C[C@@H]1OCc1ccc(-c2ccccc2)cc1: -1
6) Nc1nccn2c(C3CCC(C(=O)O)CC3)nc(-c3cc4cccc(Cl)c4[nH]3)c12 (centres undefined): 1
7) NS(=O)(=O)c1ccc(S(=O)(=O)Nc2cccc3c(Cl)c[nH]c23)cc1: 1
8) COc1cc(NS(C)(=O)=O)ccc1Nc1c2ccccc2nc2ccccc12: 1

Entry `CCC(=O)N1CCOc2c(cc(-c3cc(OC)cc(OC)c3)cc2C(=O)N[C@H]2CCCN(C)C2)C1` : call = ? 1

---

tested-on: Retinal dehydrogenase 2 (Homo sapiens) (UniProt O94788)
experiment-summary: qHTS for Inhibitors of the Aldehyde Dehydrogenase Family (ALDH1A2) Confirmation screens (AID 2061314); further: nearly all actives have a fitted effect of over 65% in size; further: potency means the concentration at half of the fitted maximal effect
measurement-context: ALDH1A2 enzyme inhibition qHTS confirmation; series mostly up to 45.9 µM
Results filed as inconclusive are left out. The source made the active and inactive calls. The call rests on the fitted dose curve; in most records, active means well fitted inhibition curve with a large enough effect; inconclusive means small, poorly fitted or top-dose-only effect; inactive means no such curve, though single readings can be large or run the other way.
endpoint: Potency

Example cases with answers are listed next.
1. COc1ccc(-c2nnc(SCC(=O)Nc3cccc(C(F)(F)F)c3)nc2-c2ccc(OC)cc2)cc1: inactive
2. CSCCC(NS(=O)(=O)c1ccc2c(c1)oc(=O)n2C)C(=O)N1CCN(c2ccc(C(C)=O)cc2)CC1 (stereo not given): inactive
3. Cc1nn(-c2ccc3nncn3n2)c(C)c1CCC(=O)Nc1ccc(OC(F)(F)F)cc1: inactive
4. NC(=O)c1cccc(-c2cnc3c(O)ccc(C(=O)O)c3c2)c1: 4.49 µM (active)

Now let's try a different one.
Potency for `Cc1ccc(NS(=O)(=O)c2ccc3c(c2)C(Cl)(Cl)C(=O)N3)cc1C` ? 3.18 µM (active)

---

experiment-summary: BET inhibitor-based combinations targeting novel dependencies in MECOM-rearranged (r) AML: MV-4-11 cell line (AID 2202233); further: nearly all actives have a fitted effect of over 45% in size
measurement-context: MV-4-11 AML viability, CellTiter-Glo luminescence, 48 h; series mostly up to 46 µM
Inconclusive results are not listed. The source made the active and inactive calls. Calls come from the whole dose curve; as a rule, active = well fitted inhibition curve with a large enough effect; inconclusive = small, poorly fitted or top-dose-only effect; inactive = no such curve, though single readings can be large or run the other way.
Parameter call: string, one of 1 (active), 0 (inactive)

Here are 5 compounds together with their reported answers.
1. Cc1ccc(-n2nc(C(C)(C)C)cc2NC(=O)NCc2cc(F)ccc2Oc2ccc3c(cnn3CCO)c2)cc1: 1
2. CC(=O)N1CCC(Nc2cc(C(=O)NC[C@H](O)CN3CCc4ccccc4C3)ncn2)CC1: 1
3. O=C(NC[C@H](O)CO)c1ccncc1Nc1ccc(I)cc1F: 1
4. CCCCN(CCCC)CCC(O)c1cc2c(Cl)cc(Cl)cc2c2cc(C(F)(F)F)ccc12 (centres undefined): 1
5. COc1cc2c(cc1OC(C)C)[C@H](c1ccc(Cl)cc1)N(c1ccc(N(C)CC3CCC(N4CCN(C)C(=O)C4)CC3)cc1)C(=O)C2 (some centres undefined): 1

Now examine the next entry.
Entry C=C1CCC2[C@](C)(CO)C(O)CC[C@]2(C)C1C/C=C1/C(=O)OCC1O (some centres undefined) : call = ? 1

---

experiment-summary: qHTS for Inhibitors of the Aldehyde Dehydrogenase Family (ALDH1A2, ALDH1A3, ALDH2, ALDH3A1) (AID 2061307); further: nearly all actives have a fitted effect of over 50% in size
measurement-context: ALDH inhibition qHTS; series mostly up to 50.3 µM
Records with an inconclusive call do not appear. The source made the active and inactive calls. Calls come from the whole dose curve; as a rule, active = well fitted inhibition curve with a large enough effect; inconclusive = small, poorly fitted or top-dose-only effect; inactive = no such curve, though single readings can be large or run the other way.
Parameter call: string, one of 1 (active), 0 (inactive)

Here are 5 compounds together with their reported answers.
1) COc1ccc(OC)c(NC(=O)c2cc3cccc(OC)c3oc2=O)c1: 0
2) N[C@H](Cc1cscn1)C(=O)Nc1cccc(-c2nn3c(=O)cc(N4CCNCC4)nc3s2)c1: 0
3) Cc1ccc2nc3sc(C(=O)NCCCN(C)C)cc3cc2c1: 1
4) Cc1csc(-c2cccc(C(=O)Nc3ccc(F)c(F)c3F)c2)n1: 0
5) Cc1ccc(-n2c(C)cc(-c3nnc4n3CCCCC4)c2C)cc1: 0

Entry `Cc1ccc(CN(C)c2ccc(N3CCN(C)CC3)cc2)cc1` : call = ? 0

---

experiment-summary: BET inhibitor-based combinations targeting novel dependencies in MECOM-rearranged (r) AML: AML-191 cell line (AID 2202236; further: nearly all actives have a fitted effect of over 35% in size)
measurement-context: AML-191 viability, CellTiter-Glo luminescence, 48 h; series mostly up to 46 µM
Records with an inconclusive call do not appear. The source made the active and inactive calls. Calls come from the whole dose curve; as a rule, active = well fitted inhibition curve with a large enough effect; inconclusive = small, poorly fitted or top-dose-only effect; inactive = flat fitted curve, though single readings scatter.
Parameter call: string, one of active, inactive

Here are 4 compounds together with their reported answers.
1) Cc1nc(NC(=O)N2CCC[C@H]2C(N)=O)sc1-c1csc(C(C)(C)C)n1: active
2) Cc1ccc(C(=O)N(CCCN)[C@@H](c2oc3cc(Cl)ccc3c(=O)c2Cc2ccccc2)C(C)C)cc1: active
3) COc1ccc2c(c1)C(c1ccc(F)cc1)=C(CN1CCCC1)CO2: inactive
4) NC1CCCN(c2c(/C=C3\SC(=O)NC3=O)cccc2-c2ccccc2)C1 (stereo not drawn): active

Entry `COc1cccc2c1C(=O)c1c(O)c3c(c(O)c1C2=O)C[C@@](O)(C(C)=O)C[C@@H]3O[C@H]1C[C@H](N)[C@H](O)[C@H](C)O1` : call = ? active

Entry `CC[C@@H](Oc1cccc(CN(CCCOc2ccc(OC)cc2)c2nc3ccccc3o2)c1)C(=O)O` : call = ? inactive

Entry `Nc1cc(COc2c(Cl)cc(C[C@H](N)C(=O)O)cc2Cl)c2oc(-c3ccccc3)nc2c1` : call = ? active

Entry `[2H]C([2H])([2H])C(O)([C@@H](C)/C=C/[C@@H](C)[C@H]1CC[C@H]2/C(=C/C=C3C[C@@H](O)C[C@H](O)C3)CCC[C@]12C)C([2H])([2H])[2H]` : call = ? active

---

experiment-summary: BET inhibitor-based combinations targeting novel dependencies in MECOM-rearranged (r) AML: UCSD-AML1 cell line (AID 2202235); further: nearly all actives have a fitted effect of over 40% in size; further: potency means the concentration at half of the fitted maximal effect
measurement-context: UCSD-AML1 AML cells viability, CellTiter-Glo, 48 h; series mostly up to 46 µM
Results filed as inconclusive are left out. Activity calls are given as the source filed them. Calls follow the shape of the dose curve; as a rule, active = well fitted inhibition curve with a large enough effect; inconclusive = small, poorly fitted or top-dose-only effect; inactive = no such curve, though single readings can be large or run the other way.
endpoint: Potency

Example cases with answers are listed next.
1. CN(C)C/C=C/C(=O)Nc1ccc(C(=O)N2CCC[C@@H](Nc3ncc(Cl)c(-c4c[nH]c5ccccc45)n3)C2)cc1: 468 nM (active)
2. O=c1oc2c(C3OCCCO3)c(O)ccc2c2c1CNCC2: inactive
3. Cn1c(=O)c2c(ncn2CC2OCCO2)n(C)c1=O: inactive
4. C=CC(=O)Nc1cccc(C)c1Nc1ncc2cc(-c3c(Cl)c(OC)cc(OC)c3Cl)ccc2n1: 5250 nM (active)
5. CCC(=C/[C@H](C)C/C=C/C(C)=C/[C@@H](C)C(=O)[C@@H](C)[C@H](O)[C@@H](C)C/C(C)=C/C(=O)O)/C=C/[C@@H]1OC(=O)C=C[C@@H]1C: 3.3 nM (active)
6. Cc1onc(-c2ccc(F)cc2)c1COc1ccc(C(=O)N2CCS(=O)(=O)CC2)cn1: inactive

Potency for COC1CCC(N2C(=O)CNc3ncc(-c4ccc(C(C)(C)O)nc4)nc32)CC1 (stereo not drawn) ? 525 nM (active)

Potency for `Cc1c(-c2c(-c3ccc(F)o3)sc3ncnc(O[C@@H](Cc4ccccc4OCc4ccnn4CC(F)(F)F)C(=O)O)c23)ccc(OCCN2CCN(C)CC2)c1Cl` ? 1320 nM (active)

Potency for `COc1ccc(N2C(=O)N(c3c(C)cccc3Cl)Cc3cnc(Nc4ccc(C5CCN(C)CC5)cc4OC)nc32)nc1` ? 13200 nM (active)

Potency for `CC(C)(C)S(=O)(=O)c1ccc2nccc(Nc3n[nH]c4ccc(F)cc34)c2c1` ? 1.2 nM (active)

Potency for `COc1cc(C(=O)O)ccc1NC(=O)[C@@H]1N[C@@H](CC(C)(C)C)[C@](C#N)(c2ccc(Cl)cc2F)[C@H]1c1cccc(Cl)c1F` ? 468 nM (active)

Potency for `CO[C@H]1O[C@@H]2O[C@@]3(C)CC[C@H]4[C@H](C)CC[C@@H]([C@H]1C)[C@@]24OO3` ? inactive

Potency for `O=C(O)C[C@H]1CCc2c1[nH]c1ccc(OCc3ccc(C4CCCC4)c(C(F)(F)F)c3)cc21` ? inactive

Potency for `COc1cccc2c1C(=O)c1c(O)c3c(c(O)c1C2=O)C[C@@](O)(/C(CO)=N/NC(=O)CCCCCN1C(=O)C=CC1=O)C[C@@H]3O[C@H]1C[C@H](N)[C@H](O)[C@H](C)O1` ? 525 nM (active)
